- Target or system: hTREM2 (Homo sapiens, UniProt Q9NZC2)
- Sequence (Q9NZC2 19-230): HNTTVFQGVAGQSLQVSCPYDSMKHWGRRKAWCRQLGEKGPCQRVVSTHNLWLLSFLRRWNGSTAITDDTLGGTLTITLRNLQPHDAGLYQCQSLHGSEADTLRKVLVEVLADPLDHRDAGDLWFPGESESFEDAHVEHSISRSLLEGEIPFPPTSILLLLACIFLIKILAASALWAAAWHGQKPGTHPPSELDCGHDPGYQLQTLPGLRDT
- Sequence (O43914 22-113 partner): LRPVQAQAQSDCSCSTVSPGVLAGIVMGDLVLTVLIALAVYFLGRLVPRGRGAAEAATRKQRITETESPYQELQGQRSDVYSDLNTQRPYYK
- Experimental protocol: TREM2 activity by cellular Syk phosphorylation (AlphaScreen/AlphaLISA) in TREM2/DAP12-HEK cells, used for Examples 1-305
- Format: cell-based
- Parameters: expressed in transfected cells
- Test conditions: HEK293 Cells
Result type: hTREM2 Emax

Known hTREM2 Emax results, listed for orientation:
Molecule	Target or system	hTREM2 Emax
Cc1cc([C@H]2CN(c3nc(-c4ccc(F)cc4F)c4ccc(C)nc4n3)CCO2)ccn1 [Example 93]	hTREM2 (Homo sapiens, UniProt Q9NZC2)	+++ (Emax>150 and ≤250)
Cc1cnc2c(-c3ccc(Cl)cc3F)nc([C@H]3CCO[C@H](c4cnn(C)c4)C3)cc2n1 [Example 246]	hTREM2 (Homo sapiens, UniProt Q9NZC2)	+++ (Emax>150 and ≤250)
Cc1nc2nc(N3CCC(F)(F)[C@H](c4cnn(C)c4)C3)nc(-c3ccc(Cl)cc3F)c2nc1C (single isomer, unassigned) [Example 124]	hTREM2 (Homo sapiens, UniProt Q9NZC2)	++++ (Emax>250)
Cc1nc2nc([C@@H]3C[C@@H](C)O[C@@H](c4cnn(C)c4)C3)cc(-c3ccc(Cl)cc3F)c2nc1C [Example 284]	hTREM2 (Homo sapiens, UniProt Q9NZC2)	+ (Emax>45 and ≤100)
Cc1cc([C@@H]2CN(c3cc4nc(C)ccc4c(-c4ccc(Cl)cc4F)n3)CCO2)ccn1 [Example 240]	hTREM2 (Homo sapiens, UniProt Q9NZC2)	++++ (Emax>250)
Cc1cc2c(-c3ccc(Cl)cc3F)cc(N3CCO[C@@H](c4cnn(C)c4)C3)nc2nc1C [Example 157]	hTREM2 (Homo sapiens, UniProt Q9NZC2)	++++ (Emax>250)

Incoming: Look up hTREM2 Emax with hTREM2 (Homo sapiens, UniProt Q9NZC2) for this molecule: Cc1nc2cc(N3CCO[C@@H](c4cnn(C)c4)C3)nc([C@H]3C[C@H](C(F)(F)F)C3)c2nc1C [Example 80]
Outgoing: ++ (Emax>100 and ≤150)

Incoming: Look up hTREM2 Emax with hTREM2 (Homo sapiens, UniProt Q9NZC2) for this molecule: Cc1cc([C@H]2C[C@@H](c3nc(-c4ccc(F)cc4F)c4nc(C)c(C)nc4n3)CCO2)ccn1 (single isomer, unassigned) [Example 211]
Outgoing: ++++ (Emax>250)

Incoming: Look up hTREM2 Emax with hTREM2 (Homo sapiens, UniProt Q9NZC2) for this molecule: COC1CN(c2nc(N3CCO[C@@H](c4cnn(C)c4)C3)nc3nc(C)c(C)nc23)C1 [Example 28]
Outgoing: +++ (Emax>150 and ≤250)

Incoming: Look up hTREM2 Emax with hTREM2 (Homo sapiens, UniProt Q9NZC2) for this molecule: Cc1cnc2c(-c3ccc(Cl)cc3F)nc(N3CCO[C@@H](c4cnn(C5CC5)c4)C3)cc2n1 [Example 76]
Outgoing: ++++ (Emax>250)

Incoming: Look up hTREM2 Emax with hTREM2 (Homo sapiens, UniProt Q9NZC2) for this molecule: Cc1nc2nc(N3CCO[C@@H](c4cnn(C5CC5)c4)C3)nc(C34CC(C(F)(F)F)(C3)C4)c2nc1C [Example 64]
Outgoing: +++ (Emax>150 and ≤250)

Incoming: Look up hTREM2 Emax with hTREM2 (Homo sapiens, UniProt Q9NZC2) for this molecule: Cc1ccc2c(C3CCC(F)(F)CC3)nc(N3CCO[C@@H](c4cnn(C)c4)C3)nc2n1 [Example 141]
Outgoing: ++ (Emax>100 and ≤150)

Incoming: Look up hTREM2 Emax with hTREM2 (Homo sapiens, UniProt Q9NZC2) for this molecule: Cc1nc2nc([C@H]3CCO[C@@H](c4cnn(C5CC5)c4)C3)nc(-c3ccc(C(F)(F)F)nc3)c2nc1C [Example 300]
Outgoing: +++ (Emax>150 and ≤250)

Incoming: Look up hTREM2 Emax with hTREM2 (Homo sapiens, UniProt Q9NZC2) for this molecule: Cc1ccc(-c2nc([C@H]3CCO[C@@H](c4cnn(C)c4)C3)cc3nc(C)c(C)nc23)c(F)c1 (single isomer, unassigned) [Example 196]
Outgoing: +++ (Emax>150 and ≤250)

Incoming: Look up hTREM2 Emax with hTREM2 (Homo sapiens, UniProt Q9NZC2) for this molecule: Cc1cc([C@H]2CN(c3nc(-c4ccc(F)cc4F)c4nc(C)c(C)nc4n3)CCO2)ccn1 [Example 33]
Outgoing: ++++ (Emax>250)

Incoming: Look up hTREM2 Emax with hTREM2 (Homo sapiens, UniProt Q9NZC2) for this molecule: Cc1nc2nc(N3CCO[C@@H](c4cnn(C5CC5)c4)C3)nc(-c3ccc(Cl)cc3F)c2nc1C [Example 22]
Outgoing: ++++ (Emax>250)

Incoming: Look up hTREM2 Emax with hTREM2 (Homo sapiens, UniProt Q9NZC2) for this molecule: Cc1nc2nc(N3CCO[C@@H](c4cnn(C)c4)C3)nc(N3CC(C(F)F)C3)c2nc1C [Example 269]
Outgoing: + (Emax>45 and ≤100)

Incoming: Look up hTREM2 Emax with hTREM2 (Homo sapiens, UniProt Q9NZC2) for this molecule: Cn1cc([C@H]2CN(c3nc(-c4ccc(Cl)cc4F)c4ccc(Cl)nc4n3)CCO2)cn1 [Example 283]
Outgoing: ++ (Emax>100 and ≤150)

###

- Target or system: hTREM2 (Homo sapiens, UniProt Q9NZC2)
- Experimental protocol: TREM2 activity by cellular Syk phosphorylation (AlphaScreen/AlphaLISA) in TREM2/DAP12-HEK cells, used for Examples 1-305
- Type: cell-based
- Parameters: expressed in transfected cells
- Test conditions: HEK293 Cells
Result type: hTREM2 Emax

Compound	Target or system	Result type	Result
Cc1nc2nc([C@H]3CCO[C@H](c4cnn(C)c4)C3)cc(-c3ccc(Cl)cc3F)c2nc1C (single isomer, unassigned)	hTREM2 (Homo sapiens, UniProt Q9NZC2)	hTREM2 Emax	+++ (Emax>150 and ≤250)
Cc1ncc([C@@H]2CN(c3nc(-c4ccc(Cl)cc4F)c4nc(C)c(C)nc4n3)CCO2)cn1 (single isomer, unassigned)	hTREM2 (Homo sapiens, UniProt Q9NZC2)	hTREM2 Emax	++++ (Emax>250)
Cc1nc2nc(N3CCO[C@@H](c4cnn(C5CC5)c4)C3)nc(-c3ccc(C(F)(F)F)nc3)c2nc1C	hTREM2 (Homo sapiens, UniProt Q9NZC2)	hTREM2 Emax	+++ (Emax>150 and ≤250)
Cc1cc(Cl)ccc1-c1nc(N2CCO[C@@H](c3cnn(C)c3)C2)nc2nc(C)c(C)nc12	hTREM2 (Homo sapiens, UniProt Q9NZC2)	hTREM2 Emax	+++ (Emax>150 and ≤250)
Cc1nc2nc([C@H]3C[C@@H](C)O[C@@H](c4cnn(C)c4)C3)nc(-c3ccc(Cl)cc3F)c2nc1C (single isomer, unassigned)	hTREM2 (Homo sapiens, UniProt Q9NZC2)	hTREM2 Emax	+++ (Emax>150 and ≤250)

Incoming: Look up hTREM2 Emax with hTREM2 (Homo sapiens, UniProt Q9NZC2) for this compound: Cc1cc2c(-c3ccc(Cl)cc3F)nc(N3CCO[C@@H](c4cnn(C)c4)C3)cc2nc1C
Outgoing: ++++ (Emax>250)

###

- Target or system: UniProt Q9NZC2
- Experimental protocol: TREM2 agonist potency by Syk phosphorylation (AlphaLisa) in HEK293T-hTREM2 cells, used for Examples 306-429
- Format: cell-based
- Set-up: expressed in transfected cells; host or cells: HEK293T (HEK293T-hTREM2 cells)
- Test conditions: HEK293 Cells
pEC50: −log10 of the molar value.
Result type: pEC50

Known pEC50 results, listed for orientation:
Molecule	Result type	Result
Cc1cnc2c(C34CC(C)(C3)C4)nc([C@H]3C[C@@H](C)O[C@@H](c4cnn(C5CC5)c4)C3)cc2n1	pEC50	5.52 to 6.30
Cc1cnc2c(C34CC(C(F)(F)F)(C3)C4)nc([C@H]3CCO[C@@H](c4cnn(C5CC5)c4)C3)nc2n1	pEC50	≥ 7.30
Cc1ccc2c(-c3ccc(Cl)cc3F)nc([C@H]3C[C@@H](C)O[C@@H](c4cnn(C5CC5)c4)C3)nc2n1	pEC50	≥ 7.30
Cc1cnc2c(C34CC(C(F)(F)F)(C3)C4)nc([C@@H]3CCO[C@@H](c4cnn(C5CC5)c4)C3)nc2n1	pEC50	5.52 to 6.30

Incoming: Request the reported pEC50 associated with Cc1cc(C2CN(c3cc4nc(C)cnc4c(C45CC(C(F)(F)F)(C4)C5)n3)CCO2)ccn1 (centres unmarked)
Outgoing: 5.52 to 6.30

###

- Target or system: hTREM2 (Homo sapiens)
- Experimental protocol: TREM2 activity by cellular Syk phosphorylation (AlphaScreen/AlphaLISA) in TREM2/DAP12-HEK cells, used for Examples 1-305
- Format: cell-based
- Design: expressed in transfected cells
- Test conditions: HEK293 Cells

Molecule	hTREM2 Emax
Cc1ncc([C@H]2C[C@@H](c3nc(-c4ccc(Cl)cc4F)c4nc(C)c(C)nc4n3)CCO2)cn1 (single isomer, unassigned)	+++ (Emax>150 and ≤250)
Cc1ccc2c(-c3ccc(Cl)cc3F)nc(N3CCO[C@H](c4cnc(C)nc4)C3)nc2n1 (single isomer, unassigned)	+++ (Emax>150 and ≤250)

Source: patent US11884675B2
